System: A673/TR/shEF
Assay: cell viability (LOESS-normalised, relative to median of negative controls) (log2 ratio); higher = more viable cells (less compound effect), active = hit call of the paper (over 3 MAD below the median)
Conditions: 0.25 µM; library screen: screen1; EWS-FLI1 expression: low (doxycycline-induced shRNA knockdown); treatment time: 72 h
About 300 (9.4%) of roughly 3,200 compounds showed activity. Shown is part of a subset that was picked to be rich in actives.
One threshold, 0.01, splits the recorded cell viability (log2) values: lower ones are Fulfilled, equal or higher ones are Not fulfilled.

These solved cases illustrate the format of a correct answer.
compound	class-label
CN(C)C(=O)/C(=C\c1cccc(Br)c1)NC(=O)c1ccccc1	Not fulfilled
CC(C)CC1NC(=O)C(Cc2ccccc2)NC(=O)C(CCN)NC(=O)C(NC(=O)C(CCN)NC(=O)C(CCO)NC(=O)C(CCN)NC=O)CCNC(=O)C(CCO)NC(=O)C(CCN)NC(=O)C(CCN)NC1=O.COc1cc(Cc2cnc(N)nc2N)cc(OC)c1OC (configuration not stated)	Not fulfilled
O=c1nc[nH]c2nc[nH]c12	Fulfilled
O=C(O)c1cc(N(Cc2ccccc2O)Cc2cc(O)ccc2O)ccc1O	Not fulfilled

Confirm or reject: cell viability (log2) of O=C(O)c1cc2cc(Cl)ccc2[nH]1 lies strictly below 0.01 Fulfilled

Criterion: cell viability (log2) strictly below 0.01. Is it met by O=C(CSc1nc2ccccc2[nH]1)c1ccc(OC(F)F)cc1 ? Not fulfilled

From: the supplement of paper PMC6089552
